Cited source: patent US20260116991A1

# reported OD450 at 66.66 nM; entries follow
target: biotinylated labeled human GPC3 protein (produced in-house) (human, UniProt P51654 25-559, limits assumed, biotinylated (Dojindo, Cat. No. LK03); sites not stated); assay: ELISA, biotinylated human GPC3 protein
Quick note: give the figure in OD450, leave out the unit.

[
  {
    "Binder": "hAb003LH3L1b (antibody, human IgG1, V domains shown, Humanized F2.154.1; VH H3 + VL L1b; expressed as human IgG1) VH: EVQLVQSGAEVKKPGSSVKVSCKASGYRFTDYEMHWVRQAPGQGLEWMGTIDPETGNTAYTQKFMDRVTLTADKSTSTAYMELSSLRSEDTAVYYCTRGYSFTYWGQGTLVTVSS VL: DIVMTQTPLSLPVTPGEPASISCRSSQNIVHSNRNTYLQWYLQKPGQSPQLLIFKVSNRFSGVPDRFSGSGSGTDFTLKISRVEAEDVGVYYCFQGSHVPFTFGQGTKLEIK",
    "Recorded Metric": "OD450 at 66.66 nM",
    "U": "OD450",
    "Measured Value": 2.61
  },
  {
    "Binder": "hAb006LH2L1a (antibody, human IgG1, V domains shown, Humanized F3.38.7; VH H2 + VL L1a; expressed as human IgG1) VH: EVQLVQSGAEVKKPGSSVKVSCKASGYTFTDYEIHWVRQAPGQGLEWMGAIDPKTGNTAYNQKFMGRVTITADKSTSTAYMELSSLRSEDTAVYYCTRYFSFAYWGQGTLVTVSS VL: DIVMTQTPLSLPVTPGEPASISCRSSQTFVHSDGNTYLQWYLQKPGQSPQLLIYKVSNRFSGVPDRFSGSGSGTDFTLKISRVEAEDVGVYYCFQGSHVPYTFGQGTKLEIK",
    "Recorded Metric": "OD450 at 66.66 nM",
    "U": "OD450",
    "Measured Value": 1.92
  }
]

Okay, now this binder:
Report OD450 at 66.66 nM for hAb007LH3L1a (antibody, human IgG1, V domains shown, Humanized F3.81.19; VH H3 + VL L1a; expressed as human IgG1) VH: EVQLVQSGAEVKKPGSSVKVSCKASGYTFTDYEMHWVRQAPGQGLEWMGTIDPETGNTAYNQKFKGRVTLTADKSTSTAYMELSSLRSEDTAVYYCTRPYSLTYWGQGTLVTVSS VL: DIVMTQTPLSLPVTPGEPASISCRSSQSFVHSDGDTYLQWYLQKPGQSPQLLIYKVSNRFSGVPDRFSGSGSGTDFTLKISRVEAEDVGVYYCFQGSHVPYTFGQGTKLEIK please.
2.03
